Source of measurements: ChEMBL document CHEMBL1157539

tested on: Plasmodium falciparum; assay: GSK_TCMDC: Inhibition of Plasmodium falciparum Dd2 in whole red blood cells, using parasite LDH activity as an index of growth. Test compounds present at 2uM; assay type: functional
Consider the following compounds; for each one, report its Inhibition.
One number for each entry, in %.

Example cases with answers are listed next.
- Compound: "Cc1cccc(-c2cccc(CNc3nc(NCCc4ccc(O)cc4)nc(N4CCNCC4)n3)c2)c1.O=C(O)C(F)(F)F"
  Measurement Name: "Inhibition"
  Observed: 0
- Compound: "COc1ccc(Nc2ncc3c(-c4cccc(NC(=O)Cc5cccc(O)c5)c4)c[nH]c3n2)cc1OC"
  Measurement Name: "Inhibition"
  Observed: 96
- Compound: "Cc1ccnc(NC(c2cccc(OCc3ccccc3)c2)c2ccc3cccnc3c2O)c1 (stereo not drawn)"
  Measurement Name: "Inhibition"
  Observed: 88

# map each compound to its Inhibition
1. CS(=O)(=O)c1cccc(-c2cnc(N)c3cc(-c4cccc(F)c4)ccc23)c1
2. COc1ccc2nccc(N(C)CC3(O)CCN(CCc4ccc5c(c4)OCCO5)CC3)c2n1.Cl
3. Cc1cccc2nc(-c3ccc(-c4cccc(CN5CCC(C(N)=O)CC5)c4)cc3)[nH]c12.O=C(O)C(F)(F)F
4. Fc1ccc2[nH]c(-c3cccc(-c4ccc(CNCc5ccccc5)cc4)c3)nc2c1.O=C(O)C(F)(F)F
5. NC1CCN(c2cnn(Cc3cccc(NC(=O)Nc4ccc(-c5ccccc5)cc4)c3)c(=O)c2Cl)CC1.O=C(O)C(F)(F)F

1: 13; 2: 96; 3: 16; 4: 89; 5: 11

###

test system: Plasmodium falciparum; assay: GSK_TCMDC: Inhibition of Plasmodium falciparum Dd2 in whole red blood cells, using parasite LDH activity as an index of growth. Test compounds present at 2uM; format: functional
# binarize Inhibition: threshold 50% inclusive, high side YES, low side NO

Hi, just wondering whether "CN1CCC(NCc2ccc(S(=O)(=O)Nc3ccc(Oc4cccc(Cl)c4)cc3)cc2)CC1.O=C(O)C(F)(F)F" shows Inhibition of 50% or higher.
NO

###

test system: Plasmodium falciparum; assay: GSK_TCMDC: Inhibition of Plasmodium falciparum Dd2 in whole red blood cells, using parasite LDH activity as an index of growth. Test compounds present at 2uM; format: functional
The threshold is 30%. Values of Inhibition beneath it are tagged Y; values meeting or exceeding it are tagged N.

Solved entries:
- Molecule: "CCN(CC)CCCCCNc1c2ccc(Cl)cc2nc2ccc(OC)cc12.Cl"
  Classification: "N"
- Molecule: "CC(C)NCc1ccc(-c2ccc(-c3nc4cc(C(F)(F)F)ccc4[nH]3)s2)cc1.O=C(O)C(F)(F)F"
  Classification: "N"
- Molecule: "Cc1ccc(CN2CCCN(Cc3cccc(NC(=O)c4cc5ccccc5s4)c3)CC2)cc1.O=C(O)C(F)(F)F"
  Classification: "Y"
- Molecule: "CCCCCN1CCCCC(NS(=O)(=O)c2ccc(C(=O)Nc3ccc(C(F)(F)F)cc3)cc2)C1.O=C(O)C(F)(F)F (stereo not given)"
  Classification: "Y"

Report whether reported Inhibition is lower than 30% (strictly) for "O=C(Nc1cccc(CN2CCN(Cc3cccc(O)c3)CC2)c1)c1cc2ccccc2s1.O=C(O)C(F)(F)F"
N

###

Consider the following compounds; for each one, report its Inhibition.
tested on: Plasmodium falciparum; experiment: GSK_TCMDC: Inhibition of Plasmodium falciparum 3D7 in whole red blood cells, using parasite LDH activity as an index of growth. Test compounds present at 2uM; assay type: functional
Answers are plain numbers, in %.

Example cases with answers are listed next.
- Compound: "CC(C)(C)c1ccc2[nH]c(-c3ccc(/C=C/C(=O)NCc4ccc(Cl)c(Cl)c4)cc3)nc2c1"
  Measurement Name: "Inhibition"
  Observed: 97
- Compound: "Cn1cc(C(=O)Nc2cccc(-c3cccc(-c4nc5ccccc5[nH]4)c3)c2)n(C)c1=O"
  Measurement Name: "Inhibition"
  Observed: 99
- Compound: "O=C(Nc1ccc(F)cc1)c1cnc(N2CCN(c3ccncc3)CC2)c(Cl)c1.O=C(O)C(F)(F)F"
  Measurement Name: "Inhibition"
  Observed: 100
- Compound: "CCCCn1c(Sc2ccc(C#N)c([N+](=O)[O-])c2)nnc1-c1ccc(OC)cc1"
  Measurement Name: "Inhibition"
  Observed: 93
- Compound: "COc1ccccc1CC1CCCN(C2CCC(NC(=O)c3cc4ccccc4[nH]3)CC2)C1 (centres undefined)"
  Measurement Name: "Inhibition"
  Observed: 98
- Compound: "O=C1C(c2ccccc2)=C(Nc2cccc(OC(F)(F)C(F)F)c2)c2ccccc21"
  Measurement Name: "Inhibition"
  Observed: 96

# map each compound to its Inhibition
1. COc1ccc(CCNC(=O)c2ccc(-n3cc(NC(=O)c4cccnc4)cn3)cc2)cc1OC
2. COc1ccc(-c2cnc3ccc(NCc4ccc(S(N)(=O)=O)cc4)nn23)cc1
3. CC(=O)N1Cc2ccccc2C1=O
4. O=C(Nc1cccc(-c2nn3ncccc3c2-c2ccnc(Nc3ccccc3)n2)c1)c1c(F)cccc1F
5. CCNc1cc(C)nc(Nc2ccc(F)cc2)n1
6. CS(=O)(=O)c1ccc(CNCc2ccc(-c3cccc(-c4nc5cc(F)ccc5[nH]4)c3)cc2)cc1.O=C(O)C(F)(F)F
7. COc1cc2nc(NCCn3cccn3)nc(NCCc3ccccc3)c2cc1OC
8. CN(C)Cc1ccc(-c2cccc(NC(=O)c3ccc(Cl)cc3)c2)cc1.O=C(O)C(F)(F)F

90
96
97
98
100
100
100
94

# map each compound to its Inhibition
1. CN1CCN(c2ccc(CNc3ccc4ncc(-c5cccc(OC(F)(F)F)c5)n4n3)cc2)CC1
2. CCCc1ccc(S(=O)(=O)Nc2ccc3c(c2)CCC3)cc1

[89, 96]

# map each compound to its Inhibition
1. CC(C)N1CCN(C(=O)c2ccc(CN(C)CCCN3CCN(c4cccc(Cl)c4Cl)CC3)s2)CC1.Cl
2. O=C(Nc1ccc(-c2ccc(-c3nc4cc(C(F)(F)F)ccc4[nH]3)cc2)cc1)Nc1ccc(F)c(F)c1F
3. CN1CCN(c2cc(NC(=O)c3ccc(-c4ccc(Cl)cc4)cc3)ccc2Cl)CC1

[94, 99, 99]

###

Consider the following compounds; for each one, report its Inhibition.
tested on: Plasmodium falciparum; assay: GSK_TCMDC: Inhibition of Plasmodium falciparum 3D7 in whole red blood cells, using parasite LDH activity as an index of growth. Test compounds present at 2uM; format: functional
Numbers only, in %.

Example cases with answers are listed next.
- Compound: "CC(=O)c1cccc(NC(=O)N2CCCN(CCCCCNC(=O)/C=C/c3ccc(Cl)c(Cl)c3)CC2)c1"
  Inhibition [%]: 93
- Compound: "CCN(CC)CCN(Cc1ccc(-c2ccc(C(F)(F)F)cc2)cc1)C(=O)Cn1c(CCc2cccc(F)c2F)nc(=O)c2cc(F)ccc21.O=C(O)C(O)C(O)C(=O)O"
  Inhibition [%]: 98
- Compound: "N=C(N)Nc1ccc(C(=O)O)c(O)c1"
  Inhibition [%]: 94

Then this compound:
Given the compound CC(O)C1CCCCN1C(=O)c1ccc(-c2ccc(-c3nc4cc(F)ccc4[nH]3)cc2)cc1 (centres undefined) , what is its reported Inhibition?
100

###

test system: Plasmodium falciparum; assay: GSK_TCMDC: Inhibition of Plasmodium falciparum 3D7 in whole red blood cells, using parasite LDH activity as an index of growth. Test compounds present at 2uM; type: functional
Measurement Name: Inhibition (%)
Numbers only, in %.

- Compound: "Cc1c(-c2cccc(C(C)(C)NCCCN3CCCCC3)c2)cnc(N)c1C.Cl"
  Measurement Target: "Plasmodium falciparum"
  Unit: "%"
  Inhibition: 95

# map each compound to its Inhibition
1. O=[N+]([O-])c1ccccc1/C=N/Nc1ccnc2cc(Cl)ccc12
2. CCOc1ccc(Nc2nc(N)c3ccccc3n2)cc1.Cl
3. Cc1cc2nc(-c3ccc(C(=O)NCc4ccc(C(C)(C)C)cc4)cc3)[nH]c2cc1C
4. CC(=O)Nc1ccc(CN2CCN(C(c3ccc(F)cc3)c3ccc(F)cc3)CC2)cc1
5. COc1ccc2nccc([C@@H](O)CN3CCC(NC(=O)C(c4ccsc4)N4CCN(c5ccccc5OC)CC4)CC3)c2c1 (some centres undefined)
6. N#Cc1cncc(-c2nc3c(N4CCCC(N)C4)cccc3n2CCNCc2ccccc2)c1.O=C(O)C(F)(F)F (centres undefined)
7. Cl.O=C(/C=C/c1cccc(Cl)c1)Nc1ccc2nc(CN3CCCC3)ccc2c1

1. 100
2. 90
3. 100
4. 93
5. 95
6. 100
7. 99

Given the compound "O=C(NCc1ccco1)c1ccc(CN2CCN(C(c3ccccc3)c3ccccc3)CC2)cc1" , what is its reported Inhibition?
96

###

system: Plasmodium falciparum; test: GSK_TCMDC: Inhibition of Plasmodium falciparum 3D7 in whole red blood cells, using parasite LDH activity as an index of growth. Test compounds present at 2uM; type: functional
Measurement Name: Inhibition (%)
One number for each entry, in %.

- Compound: "CN(C)CC(=O)Nc1ccc(Nc2nccc(NCC(O)c3ccccc3)n2)cc1 (centres undefined)"
  Observed: 95
- Compound: "Cc1cc(=NN=Cc2ccc(Cl)cc2)c2ccccc2[nH]1"
  Observed: 100
- Compound: "COc1ccc(NC(=O)/C=C/c2ccc(-c3ccc(-c4noc(C)n4)cc3)cc2)cc1OCCN(C)C.O=C(O)C(=O)O"
  Observed: 81
- Compound: "CCCC(C)Nc1nc(C)cc(N[C@@H](CC(C)C)C(=O)NCc2cccc(F)c2)n1.O=C(O)C(F)(F)F (some centres undefined)"
  Observed: 96
- Compound: "Cc1ccc(N2C(N)=NC(N)=NC2(C)C)cc1Cl.Cl"
  Observed: 90

# map each compound to its Inhibition
1. Cc1cc(N(CCN2CCCCC2)CCN2CCCCC2)nc(Nc2ccc(Cl)cc2)n1.Cl
2. Cc1nc(-c2ccc(-c3ccc(C(=O)Nc4ccc(Cl)c(N5CCN(C)CC5)c4)cc3)c(C)c2)no1
3. Cl.Clc1ccc(OCCC2CCN(CCCCCCCN3CCC(CCOc4ccc(Cl)c(Cl)c4)CC3)CC2)cc1Cl
4. CC(C)C[C@@H](/C=N/NC(N)=O)NC(=O)[C@H](CC(C)C)NC(=O)[C@H](CC(C)C)NC(=O)OCc1ccccc1

[100, 100, 99, 100]
